System: A2780
testMethodNotes: Anti-proliferative effect (CellTiter-Glo, 72 h), A2780
Format: cell-based
conditionsUsed: A2780 cells, median, read-out: IC50 antiproliferation assay A2780 [M] (median)
readout: IC50 (M)

compound	observedMeasurement
Cc1ccc2c(C(C)CCOc3cccc4ccccc34)c(C(=O)O)n3c2c1-c1c(C)nn(C)c1COCCCC3 (single isomer, unassigned) [Example 260]	2.2e-05
O=C(O)c1c(CCCOc2cccc3ccccc23)c2cccc3c2n1CCCCOCc1nn2c(c1-3)CCCC2 (single isomer, unassigned) [Example 254]	2.25e-05

a = CCc1nn(CCN2CCOCC2)c2c1-c1cccc3c(CCCOc4cccc5ccccc45)c(C(=O)O)n(c13)CCCCOC2 (single isomer, unassigned; enantiomer 2) [Example 200]
b = Cc1cc(OCCCc2c(C(=O)O)n3c4c(cccc24)-c2c(C)nn(C)c2COCCC3)cc(C)c1Cl (single isomer, unassigned; enantiomer 2) [Example 015]
Task for the reader: decide whether a or b has the larger IC50. Lab note: record the label of whichever item you select. a
